Where do these numbers come from? They come from PubChem BioAssay (Tox21).

assay: Nuclear factor erythroid 2-related factor 2/antioxidant responsive element (Nrf2/ARE) small molecule agonists: qHTS cell viability counter screen in human keratinocytes (AID 1919968); settings: KeratinoSens HaCaT ARE cells viability, CellTiter-Fluor, 24 h; series mostly up to 92.4 µM; also: nearly all actives have a fitted effect of over 55% in size; also: potency is read from the fitted curve at half-maximal effect
Inconclusive results are not listed. The source made the active and inactive calls. Calls follow the shape of the dose curve; as a rule, active = well fitted cell-killing curve with a large enough effect in the repeat runs; inconclusive = weak or mixed curves, or effect the other way; inactive = flat fitted curve, though single readings scatter.
observation-type: Potency

[
  {
    "compound": "COCCOc1cc2cc(C(=O)NC3CCN(C(C)C)CC3)n(CC(=O)Nc3ccc(Cl)cn3)c2cn1",
    "Potency": "inactive"
  },
  {
    "compound": "Cc1ccc(NC(=O)c2ccc(CN3CCN(C)CC3)cc2)cc1Nc1nccc(-c2cccnc2)n1",
    "Potency": "inactive"
  },
  {
    "compound": "CN(C)CCCO[C@@H]1[C@H]2OC(C)(C)O[C@H]2O[C@@H]1C(O)CO (some centres not stated)",
    "Potency": "inactive"
  },
  {
    "compound": "Cc1cc(CCN2CCN(c3nsc4ccccc34)CC2)cc2c1NC(=O)CC2(C)C",
    "Potency": "48.6 µM (active)"
  },
  {
    "compound": "N#CCCN(CCO)CCO",
    "Potency": "inactive"
  },
  {
    "compound": "NNC(=O)CCCCC(=O)NN",
    "Potency": "inactive"
  },
  {
    "compound": "CN(C)CCCN1c2ccccc2CCc2ccc(Cl)cc21",
    "Potency": "61.1 µM (active)"
  },
  {
    "compound": "O=C1C=CC(=O)N1",
    "Potency": "28 µM (active)"
  },
  {
    "compound": "CCCOC(=O)CCCCC(=O)OCCC",
    "Potency": "inactive"
  },
  {
    "compound": "SCCc1cnccn1",
    "Potency": "inactive"
  }
]

get_value(item= "Cc1c(C)c2c(c(C)c1OC(=O)c1cccnc1)CC[C@@](C)(CCC[C@H](C)CCC[C@H](C)CCCC(C)C)O2" , readout=Potency) returns inactive

get_value(item= "CCCCCCCCCCC=O" , readout=Potency) returns inactive
